target: T1, HLA-A*24:02 (human, biotinylated heavy chain); assay: UV peptide exchange; HLA class I ELISA
T1 construct: Conditional HLA class I complex as for m1
observable: exchange rate with Pos (%)
The reply should be a number in %, with the unit left off.

Name the reported exchange rate with Pos value associated with the binder FPVGAEGTF (Synthetic 9-mer) [P27 9-mer FPVGAEGTF (FAM126B-ORC2 fusion)]
0.7

Reported exchange rate with Pos for IQYSCMGLM (Synthetic 9-mer) [P50 9-mer IQYSCMGLM (AR W742C)] : what is it?
0.1

Which exchange rate with Pos value belongs to STRRAVRRM (Synthetic 9-mer) [P16 9-mer STRRAVRRM (MSMB-NCOA4 fusion)] ?
0.8

State the recorded exchange rate with Pos for this entry: GVLRRLLCR (Synthetic 9-mer) [P37 9-mer GVLRRLLCR (TSTD1-F11R fusion)]
-0.1
